Here, molecules appear alongside IC50 reported for UniProt:Q9UPP1 in the literature.

molecule	IC50
C=CCc1cnc2c(c1)CCC2NCc1cc(C(=O)O)ccn1 (centres unmarked)	< 0.25 µM
Cn1cnc(-c2cc(-c3nn[nH]c3C#N)ccn2)c1-c1ccc(F)cc1OCC1CC1	1 to 10 µM
c1ccc(-c2ccccc2CCn2cnc(-c3cc(-c4c[nH]nn4)ccn3)c2)cc1	1 to 10 µM
Cn1cnc(-c2cc(-c3c[nH]nn3)ccn2)c1-c1ccc(F)cc1	0.1 to 1 µM
CCN1CCC(CNCc2cc(C(=O)O)ccn2)C1=O (centres unmarked)	0.25 to 2.5 µM
CC(C)C[C@@H](COCc1ccccc1)NCc1cc(C(=O)O)ncn1	0.25 to 2.5 µM
CCNC(=O)C1CN(Cc2cc(C(=O)O)ccn2)C1	< 0.25 µM
C#CCN(C)C(=O)CNCc1cc(/C=N/C2CC2)ccn1	0.25 to 2.5 µM
CCNC(=O)C[C@H]1CCN(Cc2cc(C(=O)O)ccn2)C1	0.25 to 2.5 µM
CCN(CCN(C)C)C(=O)CNCc1cc(C=O)ccn1	0.25 to 2.5 µM
CN(C)C/C=C\CNCc1cc(C=O)ccn1	> 2.5 µM
CC[C@H]1CCN(Cc2cc(C(=O)O)ccn2)[C@@H]1CO	> 2.5 µM
CC(N[C@@H](C)C(=O)NCc1ccccc1[N+](=O)[O-])c1cc(C(=O)O)ccn1 (some centres unmarked)	> 2.5 µM
CCN(CCN(C)C)C(=O)CNCc1cc(C(=O)O)ccn1	0.1 to 1 µM
CN(CC(=O)N1CCCCC1)Cc1cc(C=O)ccn1	0.25 to 2.5 µM
CN(C)CC1CCC(CNCc2cc(/C=N/C3CC3)ccn2)CC1 (centres unmarked)	> 2.5 µM
CN(C)C(=O)CNCc1cc(/C=N\C2CC2)ccn1	> 2.5 µM
CC(C#N)NCc1ccnc(CNCCCN(C)C)c1 (centres unmarked)	> 2.5 µM
CCN(CCN(C)C)C(=O)CNCc1cc(C2OCC3(CC3)CN2C(=O)C(F)(F)F)ccn1 (centres unmarked)	> 2.5 µM
CN(C)C(=O)CNCc1cc(CNCCF)ccn1	> 2.5 µM

###

Here, molecules appear alongside pIC50 reported for UniProt Q9UPP1 in the literature.
pIC50: −log10 of the molar value.

molecule	pIC50
CC(N[C@H](C)c1nccs1)c1cc(C(=O)O)ccn1 (stereo partly drawn)	5.60 to 6.60
CN(C)CCCCCNCc1cc(CN)ccn1	< 5.60
CCN(CC)C(=O)CCN(CC(N)=O)C(C)c1cc(C(=O)O)ccn1 (stereo not drawn)	< 5.60
CCN(CC)CCCCN(Cc1cc(CNC(=O)C(F)(F)F)ccn1)C(=O)C(F)(F)F	5.60 to 6.60
CCN(CC)CCCCNCc1cc(/C=N\CCC2CCCCC2)ccn1	< 5.60
CC(N[C@@H](C)C(=O)NCc1ccccc1O)c1cc(C(=O)O)ccn1 (stereo partly drawn)	5.60 to 6.60
CNC(C#N)c1ccnc(CNCCCN(C)C)c1 (stereo not drawn)	< 5.60
c1ccc2c(CCn3cnc(-c4cc(-c5c[nH]nn5)ccn4)c3)cccc2c1	6.00 to 7.00
FC(F)(F)c1ccccc1CCn1cnc(-c2cc(-c3c[nH]nn3)ccn2)c1	6.00 to 7.00

###

pIC50: −log10 of the molar value.
Here, molecules appear alongside pIC50 reported for Histone lysine demethylase PHF8 (Homo sapiens, UniProt Q9UPP1) in the literature.
property measured: pIC50

molecule	result
COc1ccccc1CN1CCC(NC(=O)CNCc2cc(CN)ccn2)CC1	< 5.60
C[C@H](c1ccccc1)N1CC[C@@H](CNCc2cc(C(=O)O)ccn2)C1=O	5.60 to 6.60
O=C(O)c1ccnc(CN2CCCn3ccnc3C2)c1	< 5.60
COc1ccc([C@@H](C)N2CCC[C@H](CNCc3cc(C(=O)O)ccn3)C2=O)cc1	5.60 to 6.60
C[C@H](c1ccccc1)N1CCC[C@H](CNCc2cc(C(=O)O)ccn2)C1=O	5.60 to 6.60
CCN(CC)CCCCNCc1cc(C=O)ccn1	< 5.60
O=C(O)c1ccnc(CN2CC[C@H]2CO)c1	< 5.60
CCN(CC(C)(C)N(C)C)C(=O)CNCc1cc(C=O)ccn1	5.60 to 6.60
CN(C)CCCCNCc1cc(CNC2CC2)ccn1	< 5.60
CCN(CC)CCCCNCc1cc(CN)ccn1	< 5.60
C=CCN(CC=C)C(=O)[C@H](CCS(C)(=O)=O)NCc1cc(C(=O)O)ccn1	< 5.60
Fc1[nH]nnc1-c1ccnc(-c2cn(Cc3cccc(Cl)c3Cl)cn2)c1	6.00 to 7.00
COc1ccccc1CN1CCC(NC(=O)CNCc2cc(CNC3CC3)ccn2)CC1	> 6.60
CCCCN(C)C(=O)CNCc1cc(C(=O)O)ccn1	6.00 to 7.00
O=C(O)c1ccnc(CN2CCC(c3ccc(F)cc3)n3ccnc3C2)c1 (stereo not shown)	< 5.60
CC(C)C[C@@H]1[C@@H](O)CC(C)N1Cc1cc(C(=O)O)ccn1 (stereo partly shown)	5.60 to 6.60
CCNC(=O)C1CCCN(Cc2cc(C(=O)O)ccn2)C1 (stereo not shown)	< 5.60
COCCNCc1ccnc(CNCCCN(C)Cc2ccccc2)c1	< 5.60
CN(C)CCNCc1ccnc(CNCCCN(C)Cc2ccccc2)c1	< 5.60
Cn1cnc(-c2cc(-c3nn[nH]c3Cl)ccn2)c1-c1ccc(F)cc1OCC1CC1	< 5.00
CC(c1ccccc1)n1cnc(-c2cc(-c3c[nH]nn3)ccn2)c1 (stereo not shown)	6.00 to 7.00
OCC/N=C/c1ccnc(CNCCc2ccccc2OCc2ccccc2)c1	< 5.60
CC1CC1/N=C/c1ccnc(CNCC(=O)N(C)C)c1 (stereo not shown)	> 6.60
CCN(CCN(C)C)C(=O)CNCc1cc(/C=N/CC2(CO)CC2)ccn1	< 5.60
O=Cc1ccnc(CNCC(=O)N2CCC(Cc3ccccc3)CC2)c1	5.60 to 6.60
Cn1cnc(-c2cc(-c3c[nH]nn3)ccn2)c1-c1ccc(F)cc1OCC1CC1	5.00 to 6.00
O=Cc1ccnc(CNCC(=O)N2CCC[C@@H]2CN2CCCC2)c1	< 5.60
CCN(CCC#N)C(=O)CNCc1cc(/C=N/CCO)ccn1	5.60 to 6.60
CN(C)CCCNCc1cc(/C=N/CCN(C)C)ccn1	< 5.60
O=C(O)c1ccnc(CNCc2ccc3ncccc3c2)c1	> 6.60
CN(C)C/C=C/CNCc1cc(C=O)ccn1	< 5.60
CCN(CC)CCCCNCc1cc(CNC(=O)C(F)(F)F)ccn1	5.60 to 6.60
c1ccc(CN2CCC[C@H]2CNCc2cc(CNCC3CC3)ccn2)cc1	5.60 to 6.60
CCN(CC)CCCCNCc1cc(C(=O)O)ccn1	≤ 6.00
CN(C)CCNCc1ccnc(CNCC(=O)N(C)C)c1	< 5.60
CCSCCNCc1cc(/C=N/C2CC2)ccn1	> 6.60
O=C(O)c1ccnc(CN2CCC[C@H]2CO)c1	5.60 to 6.60
CN1CCN(C(=O)CNCc2cc(C=O)ccn2)CC1	< 5.60
CN1CCCC1CCNCc1cc(/C=N/C2CC2)ccn1 (stereo not shown)	< 5.60
Fc1c(Cl)cccc1Cn1cnc(-c2cc(-c3c[nH]nn3)ccn2)c1	≥ 7.00

###

pIC50: −log10 of the molar value.
Here, compounds appear alongside pIC50 reported for Histone lysine demethylase PHF8 (Homo sapiens, UniProt Q9UPP1) in the literature.

compound	test system	pIC50
CCN(CCC#N)C(=O)CNCc1cc(/C=N/C2CC2)ccn1	Histone lysine demethylase PHF8 (Homo sapiens, UniProt Q9UPP1)	> 6.60
CN(C)CCCCNCc1cc(/C=N\C2CC2)ccn1	Histone lysine demethylase PHF8 (Homo sapiens, UniProt Q9UPP1)	< 5.60
C=CCN(CC=C)C(=O)[C@H](CCCCN(C)C(=O)NC)NCc1cc(C(=O)O)ccn1	Histone lysine demethylase PHF8 (Homo sapiens, UniProt Q9UPP1)	< 5.60
NCc1ccnc(CNCCCCN2CCC2)c1	Histone lysine demethylase PHF8 (Homo sapiens, UniProt Q9UPP1)	< 5.60
CC1CCCCN1CCCNCc1cc(CNC2CC2)ccn1 (stereo not shown)	Histone lysine demethylase PHF8 (Homo sapiens, UniProt Q9UPP1)	< 5.60
CCN1CCC[C@@H](CNCc2cc(C(=O)O)ccn2)C1=O	Histone lysine demethylase PHF8 (Homo sapiens, UniProt Q9UPP1)	5.60 to 6.60
c1ccc2c(c1)OCCC2Cn1cnc(-c2cc(-c3c[nH]nn3)ccn2)c1 (stereo not shown)	Histone lysine demethylase PHF8 (Homo sapiens, UniProt Q9UPP1)	≥ 7.00
O=Cc1ccnc(CNCCCN2CCCC2)c1	Histone lysine demethylase PHF8 (Homo sapiens, UniProt Q9UPP1)	< 5.60
CCOc1cc(-c2c(-c3cc(-c4c[nH]nn4)ccn3)ncn2C)ccc1F	Histone lysine demethylase PHF8 (Homo sapiens, UniProt Q9UPP1)	5.00 to 6.00
C=CCN(CC=C)C(=O)[C@@H](CCCCNCCC)NCc1cc(C(=O)O)ccn1	Histone lysine demethylase PHF8 (Homo sapiens, UniProt Q9UPP1)	5.60 to 6.60
